Tested on: VchCAST RNA-guided transposition machinery (E. coli BL21(DE3) host, lacZ target)
assayName: relative integration efficiency (T-RL orientation) vs wild-type transposon end (log2 (normalized fold change)); transposon end mutated: right end (5 bp flank + 75 bp right end); higher = more efficient transposition
Quick list: relative integration efficiency (log2) per entry.

residues	testedOn	relative integration efficiency (log2)
ACATTTGTTGATACAACCATATATTGATATCTCCAACCATAAGTTGATATTTTTCACAACCATAAAGTGATATTTACTCTGATCATAGTCAGACCAACATTGCTACGACCCGTATTCGCACCGACAC	VchCAST RNA-guided transposition machinery (E. coli BL21(DE3) host, lacZ target)	-0.225
ACATTTGTTGATACAACCATAAAATGATAATTACACCCATAAATTGATATTGCTCACACCCATAAATTGATATTGCCTCTGATCATAGTCAGACCAACATTGCTACGACCCGTATTCGCACCGACAC	VchCAST RNA-guided transposition machinery (E. coli BL21(DE3) host, lacZ target)	-0.394
ACATTTGTTGATACAACCCTAAAATGATAATTACACCCATAAATGGATAATTATCACACCCAATTTAACTATAACGCTCTGATCATAGTCAGACCAACATTGCTACGACCCGTATTCGCACCGACAC	VchCAST RNA-guided transposition machinery (E. coli BL21(DE3) host, lacZ target)	-3.06
ACATTTGTGGATACAACCCTAAAATGATAATTACACCCATAAATTCATCATTATCACCCCCAATTTAACTATAACGCTCTGATCATAGTCAGACCAACATTGCTACGACCCGTATTCGCACCGACAC	VchCAST RNA-guided transposition machinery (E. coli BL21(DE3) host, lacZ target)	-4.53
ACATTTGTTGATACAACCATAAAATGATAATTACCCCCATCAATTGATAATTATCACACCCAATTTAACTATAACGCTCTGATCATAGTCAGACCAACATTGCTACGACCCGTATTCGCACCGACAC	VchCAST RNA-guided transposition machinery (E. coli BL21(DE3) host, lacZ target)	-2.23
ACATTTGTTGATACAACCATAAAATGATAATTAATAATTATTTACACCCATAAATTGATAATTATCACACCCATAAATTGATATTGCCTCTGATCATAGTCAGACCAACATTGCTACGACCCGTATT	VchCAST RNA-guided transposition machinery (E. coli BL21(DE3) host, lacZ target)	-2.85
ACATTTGTGGATACAACCATAAAATGATAATTACACCCATAAATGGATAATTATCACCCCCAATTTAACTATAACGCTCTGATCATAGTCAGACCAACATTGCTACGACCCGTATTCGCACCGACAC	VchCAST RNA-guided transposition machinery (E. coli BL21(DE3) host, lacZ target)	-1.15
ACATTTGTTGATACAACCATAAAAGGATAATTCACCCATAAATTGATAATTATCACACCCACATTTAACTATAACGCTCTGATCATAGTCAGACCAACATTGCTACGACCCGTATTCGCACCGACAC	VchCAST RNA-guided transposition machinery (E. coli BL21(DE3) host, lacZ target)	-2.38
ACATTTGTTGATACAACCATATATTGATATCTCCAACCATAAAATGATAATTATCAGTGGGTATTTAACTATAACGCTCTGATCATAGTCAGACCAACATTGCTACGACCCGTATTCGCACCGACAC	VchCAST RNA-guided transposition machinery (E. coli BL21(DE3) host, lacZ target)	-1.15
ACATTTGTTCATACAACCATAAAATGATAATTACACCCATAAATTCATCATTATCACACCCAATTTAACTATAACGCTCTGATCATAGTCAGACCAACATTGCTACGACCCGTATTCGCACCGACAC	VchCAST RNA-guided transposition machinery (E. coli BL21(DE3) host, lacZ target)	-2.35
ACATTTGTTGATACAACCATAAAATGATAATTACACCCATAAATTGATAATTATCACCCATAAATTGATATTGCCTCTGATCATAGTCAGACCAACATTGCTACGACCCGTATTCGCACCGACACTG	VchCAST RNA-guided transposition machinery (E. coli BL21(DE3) host, lacZ target)	-0.448
ACATTTTGTGATACAACCATAAAATGATAATTACACCCATAAATTGATAATTATCACACCCATAAATTGATATTGCCTCTGATCATAGTCAGACCAACATTGCTACGACCCGTATTCGCACCGACAC	VchCAST RNA-guided transposition machinery (E. coli BL21(DE3) host, lacZ target)	-6.54
ACATTTGTTCATACAACCATAAAATGATAATTACACCCATAAATGGATAATTATCACCCCCAATTTAACTATAACGCTCTGATCATAGTCAGACCAACATTGCTACGACCCGTATTCGCACCGACAC	VchCAST RNA-guided transposition machinery (E. coli BL21(DE3) host, lacZ target)	-1
ACATTTGTTGATACACCCATAAATTGATAATTACAACCATAAAGTGATATTTATCACAACCATAAAATGATAATTACTCTGATCATAGTCAGACCAACATTGCTACGACCCGTATTCGCACCGACAC	VchCAST RNA-guided transposition machinery (E. coli BL21(DE3) host, lacZ target)	-0.58
ACATTTGTTGATACAACCATAAAATGATAATTACACCCATAAATTGATAATTATCACACCCATAAATTGATACTCTGATCATAGTCAGACCAACATTGCTACGACCCGTATTCGCACCGACACTGAC	VchCAST RNA-guided transposition machinery (E. coli BL21(DE3) host, lacZ target)	0.0156
ACATTTGTTGATACAACCATAAGTTGATATTTTCAACCATAAAGTGATATTTATCACACCCATAAATTGATATTGCCTCTGATCATAGTCAGACCAACATTGCTACGACCCGTATTCGCACCGACAC	VchCAST RNA-guided transposition machinery (E. coli BL21(DE3) host, lacZ target)	-0.032
ACATTTCTTCATACAACCATAAAATGATAATTACACCCATAAATGGATAATTATCACACCCAATTTAACTATAACGCTCTGATCATAGTCAGACCAACATTGCTACGACCCGTATTCGCACCGACAC	VchCAST RNA-guided transposition machinery (E. coli BL21(DE3) host, lacZ target)	-4.17
ACATTTGTTGATACAACCATAAAATGATAATTACACCCATAAATTGATACGGCTCACACCCATAAATTGATATTGCCTCTGATCATAGTCAGACCAACATTGCTACGACCCGTATTCGCACCGACAC	VchCAST RNA-guided transposition machinery (E. coli BL21(DE3) host, lacZ target)	-0.622
ACATTTGTTGATACACCCATAAATTGATATTGCCACCCATAAATTGATAATTATCACAACCATATATTGATATCTCCTCTGATCATAGTCAGACCAACATTGCTACGACCCGTATTCGCACCGACAC	VchCAST RNA-guided transposition machinery (E. coli BL21(DE3) host, lacZ target)	-1.14
ACATTTGTTGATACAACCATAAAGTGATATTTACAACCATAAAATGATAATTATCACAACCATAAAGTGATATTTACTCTGATCATAGTCAGACCAACATTGCTACGACCCGTATTCGCACCGACAC	VchCAST RNA-guided transposition machinery (E. coli BL21(DE3) host, lacZ target)	0.0289
